// provenance: a melting point compilation (Tetko et al.; mined from patent text by program, amines drawn as free bases though some values may be those of a salt)

Reported melting point by item:

Some solved cases for reference:
Prompt line: Give melting point for the following compound: CCOCc1nc2c(N)nc3cccnc3c2n1CCCCN(OC)C(=O)NC(C)C
Response line: 146 to 147 °C

Prompt line: Give melting point for the following compound: CCC1=Nc2c(C)nn(C)c2C2=NCC(C)N12 (stereo unspecified)
Response line: 105 to 107 °C

Prompt line: Give melting point for the following compound: O=C(CC1CC1)NC[C@H]1CN(c2ccc3c(c2)CCCc2cn[nH]c2-3)C(=O)O1
Response line: 212 to 215 °C

Prompt line: Give melting point for the following compound: COc1cc(OC)c(C(=O)CCCCCl)cc1NS(=O)(=O)c1ccc(C(F)(F)F)cc1
Response line: 150 to 153 °C

Prompt line: Give melting point for the following compound: CCC(=O)N[C@@H](C)C(=O)N1CCC[C@H]1C(=O)NC1CCCCC1
Response line: 172 to 174 °C

Prompt line: Give melting point for the following compound: COc1ccc(-c2cc(N3CCN(C(=O)c4cc(S(N)(=O)=O)c(Cl)cc4Cl)CC3)nc(C)n2)cc1OC
Response line: 150 to 160 °C

Continuing:
Prompt line: Give melting point for the following compound: CC(C)(C)Cn1c(=O)c(=O)[nH]c2cc([N+](=O)[O-])c(N)cc21
Response line: > 300 °C

Prompt line: Give melting point for the following compound: CCCc1c(OCCCCCC(=O)c2c(C)c(C)c(OC)c(OC)c2C)ccc(C(=O)O)c1O
Response line: 108 to 112 °C

Prompt line: Give melting point for the following compound: COc1cccc(CCc2ccccc2C(=O)O)c1
Response line: 119 to 122 °C

Prompt line: Give melting point for the following compound: Cc1cccc2c1OC[C@H](NC(=O)OC(C)(C)C)C(=O)N2
Response line: 179 °C

Prompt line: Give melting point for the following compound: O=C(Nc1ccc2c(c1)OCCO2)NC12CC3CC(CC(C3)C1)C2
Response line: 230 to 236 °C

Prompt line: Give melting point for the following compound: CCCN(CCC)CCc1ccc(OCc2ccccc2)c(NC(N)=O)c1
Response line: 70 to 88 °C

Prompt line: Give melting point for the following compound: CSc1ccc(C(=O)NCc2ccc3c(c2)C(=O)N(C2CCC(=O)NC2=O)C3=O)nc1 (stereo unspecified)
Response line: 185 to 187 °C

Prompt line: Give melting point for the following compound: O=C1c2ccccc2C(=O)N1CCS(=O)(=O)c1ccccc1
Response line: 186 to 188 °C

Prompt line: Give melting point for the following compound: Clc1ccc2nc(CN3CCc4ccccc4C3)[nH]c2c1
Response line: 204 to 206 °C

Prompt line: Give melting point for the following compound: Cc1sccc1C(=O)O
Response line: 71 to 73 °C

Prompt line: Give melting point for the following compound: CCCc1n[nH]c(C(N)=O)c1N
Response line: 196 to 201 °C

Prompt line: Give melting point for the following compound: O=Cc1nn(-c2ccc(F)cc2)c2c1CCC2
Response line: 123 to 125 °C

Prompt line: Give melting point for the following compound: Cc1ccc(S(=O)(=O)NN=CC(=O)Cl)cc1
Response line: 100 to 110 °C

Prompt line: Give melting point for the following compound: CC(=O)NC[C@H]1CN(c2ccc3c(c2)C[C@@H](C)N3C=O)C(=O)O1
Response line: 158 to 159 °C

Prompt line: Give melting point for the following compound: CCn1cc(C(=O)O)c(=O)c2cnc(N3CCN(Cc4ccc(OC)cc4)CC3)nc21
Response line: 136 °C

* * *

Reported melting point by item:

Some solved cases for reference:
Prompt line: Give melting point for the following molecule: COC(=O)C(C(C)C)S(=O)(=O)Nc1nc(OC)cc(OC)n1 (stereo not given)
Response line: 94 to 95 °C

Prompt line: Give melting point for the following molecule: Cn1c(COc2ccc(CC3SC(=O)NC3=O)cc2)nc2ccc(Oc3ccc4cccc(NC(=O)NCc5ccccc5)c4c3)cc21 (stereo not given)
Response line: 220 to 222 °C

Prompt line: Give melting point for the following molecule: CC(C)C(=O)Nc1ccc(-c2c[nH]c(=O)cn2)cc1
Response line: 280 °C

Continuing:
Prompt line: Give melting point for the following molecule: FC(F)(F)Oc1ccc(-c2ccc(OCc3ccccc3)cc2)cc1
Response line: 136 to 137 °C

Prompt line: Give melting point for the following molecule: CCCCCc1c(/C=C/C(=O)OC)sc2cc(OC)ccc12
Response line: 49 to 50 °C

Prompt line: Give melting point for the following molecule: O=C(NCc1ccccc1)c1csc(-n2ccc(OCc3ccccc3)cc2=O)c1
Response line: 162 to 163 °C

Prompt line: Give melting point for the following molecule: CCc1nc2c(C)cc(C)nc2n1Cc1ccc(C(c2ccc(C)cc2)C(C(=O)O)C(=O)O)cc1 (stereo not given)
Response line: 140 to 141 °C

Prompt line: Give melting point for the following molecule: Cc1nc2c(c(=O)[nH]1)-c1cc(S(=O)(=O)Nc3ccc([N+](=O)[O-])cc3)ccc1CC2
Response line: > 240 °C

Prompt line: Give melting point for the following molecule: Cc1cc(/C=C/C(=O)N(C)O)c(C)n1-c1ccc(C(=O)N(C)C)cc1
Response line: 172 to 174 °C

Prompt line: Give melting point for the following molecule: COc1cc(Cl)nc(N(C=O)c2ccccc2)n1
Response line: 118 to 120 °C

Prompt line: Give melting point for the following molecule: N#Cc1cccc(C(=O)Cc2ccnnc2)c1
Response line: 142 to 144 °C

Prompt line: Give melting point for the following molecule: COC(=O)c1ccccc1-c1n[nH]c(-c2cccc(C(F)(F)F)c2)n1
Response line: 110 to 112 °C

Prompt line: Give melting point for the following molecule: C=CCn1nc(-c2cc(C(C)(C)C)c(O)c(C(C)(C)C)c2)c2cccnc21
Response line: 120 to 123 °C

* * *

Reported melting point by item:

Some solved cases for reference:
Prompt line: Give melting point for the following molecule: CN1C(=O)c2ccccc2N=C(NCCc2ccccc2)C1c1ccccc1 (stereo not given)
Response line: 173 to 174 °C

Prompt line: Give melting point for the following molecule: O=C(CCc1ccccc1)NCC(=O)N1c2ccccc2N(Cc2ccccc2)C(=O)[C@H]2CCC[C@H]21 (relative stereo)
Response line: 205 to 207 °C

Prompt line: Give melting point for the following molecule: O=C(O)C1CSC(c2ccccc2OCC2CCC(CO[N+](=O)[O-])CC2)N1 (stereo not given)
Response line: 108 to 111 °C

Prompt line: Give melting point for the following molecule: C=CC[C@H](C(N)=O)[C@@H](CC(C)C)C(=O)NC1N=C(c2ccccc2)c2cc(OC)ccc2N(C)C1=O (stereo not given in full)
Response line: 244 to 255 °C

Continuing:
Prompt line: Give melting point for the following molecule: COC(=O)C(Cc1c[nH]c2ccccc12)NCOC(C)[Si](C)(C)C (racemic)
Response line: 113 to 115 °C

Prompt line: Give melting point for the following molecule: Cc1nc(N2CCOCC2)ccc1N1CCCn2c1nc1c(Cl)ccc(C(OC(F)F)C(F)(F)F)c12 (stereo not given)
Response line: 191 to 193 °C

Prompt line: Give melting point for the following molecule: COc1ccc(S(=O)(=O)N2CCc3cccc(-c4ccco4)c32)cc1
Response line: 177 to 178 °C

Prompt line: Give melting point for the following molecule: COCC(=O)c1cnc(C2OCCO2)s1
Response line: 65 to 66 °C

Prompt line: Give melting point for the following molecule: CC(=O)N1C(C)(C)CC(N2CCCCCC2=O)CC1(C)C
Response line: 104 to 108 °C

Prompt line: Give melting point for the following molecule: O=C(O)CN(CC(=O)O)CC(=O)Nc1cc(C(F)(F)F)cc(C(F)(F)F)c1
Response line: 201 °C

Prompt line: Give melting point for the following molecule: CCSCc1cccc(-c2nc(=O)c3ccccc3s2)n1
Response line: 142 to 144 °C

* * *

Reported melting point by item:

Some solved cases for reference:
Prompt line: Give melting point for the following compound: CC1(c2ccccc2)CN(c2ccnc(N)c2)C(=O)O1 (stereo not given)
Response line: 140 to 141 °C

Prompt line: Give melting point for the following compound: Cc1nnc(C(C)(C)C)c(=O)n1N
Response line: 155 to 157 °C

Prompt line: Give melting point for the following compound: CC1CCC(N2c3ccccc3Oc3c(Cl)cccc32)=N1 (stereo not given)
Response line: 120 to 122 °C

Prompt line: Give melting point for the following compound: CC(=O)Oc1cc2c(nc1C)C(=O)OC2=O
Response line: 123 to 125 °C

Prompt line: Give melting point for the following compound: N#CCOc1coc2ccccc2c1=O
Response line: 145 to 146 °C

Prompt line: Give melting point for the following compound: COC(=O)c1ccc(-c2nc(-c3cc(C)sc3C)cs2)cc1
Response line: 109 to 110 °C

Continuing:
Prompt line: Give melting point for the following compound: CN1C(=O)C(=CN2CCOCC2)N=C(c2ccccc2Cl)c2cc(F)ccc21
Response line: 110 to 115 °C

Prompt line: Give melting point for the following compound: COc1ccc(-c2nc(Cl)c(Oc3ccccc3OC)c(NS(=O)(=O)c3ccc(C(C)(C)C)cc3)n2)cc1
Response line: 221 to 222 °C

Prompt line: Give melting point for the following compound: COc1ccc([N+](=O)[O-])c(N(C)C(=O)OC(C)(C)C)c1
Response line: 122 to 124 °C

Prompt line: Give melting point for the following compound: COC(=O)[C@@H]1C[C@H](OC(=O)c2ccccc2)C(=O)[C@H]2[C@@]1(C)CC[C@H]1C(=O)O[C@H](c3ccoc3)C[C@]21C
Response line: 165 to 170 °C
